- Measurement Notes: Metabolic stability in human liver microsomes assessed as half life at 10 uM by LC-MS/MS analysis
- Format: ADME, Microsome
- Applied Conditions: liver microsomes
Checkbox rule: half-life at 10 µM lower than 3 h = condition met; half-life at 10 µM not lower than 3 h = condition not met.

Worked examples follow.
- Smiles Str: "CO[C@H](C(=O)Nc1nnc(NC2CCN(c3nnc(NC(=O)CCc4cn(-c5ccc(C(F)(F)F)cc5)nn4)s3)CC2)s1)c1ccccc1"
  Answer Label: "condition not met"
- Smiles Str: "O=C(Cc1ccccc1)Nc1nnc(NC2CCN(c3nnc(NC(=O)c4nccn4Cc4ccc(C(F)(F)F)cc4)s3)CC2)s1"
  Answer Label: "condition not met"

Prompt: For this compound, is half-life at 10 µM lower than 3 h? Cc1ccc(Cn2cc(CCC(=O)Nc3ccc(CCCCc4nnc(NC(=O)Cc5ccccn5)s4)nn3)nn2)cc1
Response: condition met

Prompt: For this compound, is half-life at 10 µM lower than 3 h? CO[C@@H](C(=O)Nc1nnc(NC2CCN(c3nnc(NC(=O)CCc4cn(CC5=CC=C(C(F)(F)F)CC5)nn4)s3)CC2)s1)c1ccccc1
Response: condition met

Prompt: For this compound, is half-life at 10 µM lower than 3 h? O=C(Cc1ccccc1)Nc1nnc(NC2CCN(c3nnc(NC(=O)c4ccn(Cc5ccc(C(F)(F)F)cc5)n4)s3)CC2)s1
Response: condition met

Prompt: For this compound, is half-life at 10 µM lower than 3 h? O=C(Cc1ccccc1)Nc1nnc(NC2CCN(c3nnc(NC(=O)CCc4cn(Cc5ccc(C(F)(F)F)cc5)nn4)s3)CC2)s1
Response: condition met

Prompt: For this compound, is half-life at 10 µM lower than 3 h? CO[C@H](C(=O)Nc1nnc(NC2CCN(c3nnc(NC(=O)CCc4cn(Cc5ccc(C(F)(F)F)cc5)nn4)s3)CC2)s1)c1ccccc1
Response: condition not met

====

- Measurement Notes: Metabolic stability in human plasma assessed as parent compound remaining at 1 uM measured after 2 hrs by LC-MS/MS analysis
- Type: ADME, cell-free
- Applied Conditions: read-out: Stability
Property Label: remaining at 2 h, 1 µM (%)
Numeric only. Scale: %

- Smiles Str: "O=C(Cc1ccccc1)Nc1nnc(NC2CCN(c3nnc(NC(=O)c4nccn4Cc4ccc(C(F)(F)F)cc4)s3)CC2)s1"
  remaining at 2 h, 1 µM / %: 96
- Smiles Str: "CO[C@H](C(=O)Nc1nnc(NC2CCN(c3nnc(NC(=O)CCc4cn(Cc5ccc(C(F)(F)F)cc5)nn4)s3)CC2)s1)c1ccccc1"
  remaining at 2 h, 1 µM / %: 95
- Smiles Str: "Cc1ccc(Cn2cc(CCC(=O)Nc3ccc(CCCCc4nnc(NC(=O)Cc5ccccn5)s4)nn3)nn2)cc1"
  remaining at 2 h, 1 µM / %: 72

Prompt: Give the measured remaining at 2 h, 1 µM of O=C(Cc1cccc(OC(F)(F)F)c1)Nc1ccc(CCCCc2nnc(NC(=O)Cc3ccccn3)s2)nn1 .
Response: 85

Prompt: Give the measured remaining at 2 h, 1 µM of CO[C@@H](C(=O)Nc1nnc(NC2CCN(c3nnc(NC(=O)CCc4cn(CC5=CC=C(C(F)(F)F)CC5)nn4)s3)CC2)s1)c1ccccc1 .
Response: 91

Prompt: Give the measured remaining at 2 h, 1 µM of O=C(Cc1ccccc1)Nc1nnc(NC2CCN(c3nnc(NC(=O)CCc4cn(Cc5ccc(C(F)(F)F)cc5)nn4)s3)CC2)s1 .
Response: 79

Prompt: Give the measured remaining at 2 h, 1 µM of O=C(Cc1ccccc1)Nc1nnc(NC2CCN(c3nnc(NC(=O)c4ccn(Cc5ccc(C(F)(F)F)cc5)n4)s3)CC2)s1 .
Response: 76

Prompt: Give the measured remaining at 2 h, 1 µM of CO[C@H](C(=O)Nc1nnc(NC2CCN(c3nnc(NC(=O)CCc4cn(-c5ccc(C(F)(F)F)cc5)nn4)s3)CC2)s1)c1ccccc1 .
Response: 98
